SYSTEM_TESTED: DNMT3A catalytic domain (mouse) (UniProt O88508)
TEST_METHOD_NOTES: relative CpG methylation activity (normalised to average over all NNNCGNNN flanks) (relative (1 = mean)); higher = more methylation of the central CpG
PROTOCOL_CONDITIONS: system: in vitro, murine catalytic domain; CpG state: hemimethylated substrate pool; residues: 608-908
In all, about 4,100 sequences were measured (“relative CpG methylation activity (normalised to average over all NNNCGNNN flanks)”: median about 0.87, highest 2% from about 2.4 on). The sample holds the highest values, similar sequences and a random draw of the others, so the mix is not that of the screen.
ENDPOINT: relative CpG methylation activity
// keep it numeric: no unit symbol after the value

Find the recorded relative CpG methylation activity belonging to CCACGTCT and report it.
1.61

Entry AGCCGATT has what relative CpG methylation activity?
0.672

Value lookup for relative CpG methylation activity; key = GCTCGGCC
1.3

relative CpG methylation activity for CCTCGGAT ?
0.744

Bench note: what relative CpG methylation activity did GCACGGGC show?
1.47

Recorded relative CpG methylation activity of GGACGGAC , please.
0.861

Which relative CpG methylation activity value is on record for GGACGCCC ?
1.88

Reported relative CpG methylation activity for TTACGTCC : what is it?
2.56

What value of relative CpG methylation activity has been reported for the following sequence? TTACGCCT
2.38

Query (sequence): CGTCGAGC ; field requested: relative CpG methylation activity
1.06

Which measured relative CpG methylation activity value corresponds to ATACGCGA ?
1.33

State the recorded relative CpG methylation activity for this entry: CTACGTCT
2.45
